Answer each item with its documented GI50.
Number only, in µM; omit the unit.

Exercise: Please respond with reported GI50 (system HCT-15) for CC(=O)N1C/C(=C\c2ccccc2)C(=O)/C(=C/c2ccccc2)C1 .
Solution: 8.38

Exercise: Please respond with reported GI50 (system HCT-15) for CC(=O)c1cccc(NC(=O)C(=O)C(C(=O)c2ccccc2F)C2OC(=O)c3ccccc32)c1 (stereo not given) .
Solution: 30.2

Exercise: Please respond with reported GI50 (system HCT-15) for O=c1[nH]cc(/C=N\Nc2ccccc2)c(=O)[nH]1 .
Solution: 36.3

Exercise: Please respond with reported GI50 (system HCT-15) for Cn1c(=O)c2c(nc(C(=N)SCC(=O)O)n2C)n(C)c1=O .
Solution: 31.8

----------
Tested on: ACHN
EXPERIMENT NOTES: NCI tumour cell line growth inhibition, 48 h
The source made the active and inactive calls. Rule as the data show it: active = GI50 up to about 1.1 µM and inactive = higher.
Answer each item with its documented GI50.

Exercise: Please respond with reported GI50 (system ACHN) for O=C(O)C(Br)C(Br)C(=O)O (centres undefined) .
Solution: > 100 µM (inactive)

Exercise: Please respond with reported GI50 (system ACHN) for CN(COC(=O)C(C)(C)C)c1nc(N(C)COC(=O)C(C)(C)C)nc(N(C)COC(=O)C(C)(C)C)n1 .
Solution: 32.3 µM (inactive)

Exercise: Please respond with reported GI50 (system ACHN) for C#CCN(Cc1ccc2nc(-c3ccccc3)c(Cl)nc2c1)c1ccc(Cl)c(Cl)c1 .
Solution: > 100 µM (inactive)

Exercise: Please respond with reported GI50 (system ACHN) for CN(C)CC(/C(Cc1ccccc1)=N\NC(=O)C[n+]1ccccc1)c1ccccc1 (centres undefined) .
Solution: > 100 µM (inactive)

Exercise: Please respond with reported GI50 (system ACHN) for CC(C)N(C(=O)C12C3C4C5C3C1(C#N)C5C42)C(C)C (centres undefined) .
Solution: > 100 µM (inactive)

Exercise: Please respond with reported GI50 (system ACHN) for COc1cc(/C=C2/C(=O)N(C(=O)OC(C)C)C(Cc3cc(OC)c(OC)c(C)c3OC)C(=O)N2Cc2ccccc2)c(OC)c(C)c1OC (centres undefined) .
Solution: > 100 µM (inactive)

Exercise: Please respond with reported GI50 (system ACHN) for N#CN=C(N(Cc1ccccc1)Cc1ccccc1)N(Cc1ccccc1)Cc1ccccc1 .
Solution: 4.53 µM (inactive)

Exercise: Please respond with reported GI50 (system ACHN) for CCOP(=O)(OCC)/C(C#N)=C/c1cc(O)ccc1O .
Solution: > 100 µM (inactive)

Exercise: Please respond with reported GI50 (system ACHN) for C=C1CC(C#N)(C#N)[C@@H]2CC3CCCC3[C@H]12.C=C1CC(C#N)(C#N)[C@H]2C3CCCC3C[C@@H]12 (some centres undefined) .
Solution: 24.8 µM (inactive)

----------
Answer each item with its documented GI50.
Test system: SNB-75
EXPERIMENT NOTES: NCI tumour cell line growth inhibition, 48 h
The source made the active and inactive calls. Rule as the data show it: active = GI50 up to about 1.1 µM and inactive = higher.

Exercise: Given Oc1ccccc1C1C=C(c2ccccc2)NC(N2CCCCC2)=C1c1nc2ccccc2[nH]1 (configuration not stated) , respond with its GI50.
Solution: 4.57 µM (inactive)

Exercise: Given CC1/C(=N\O)CC(c2ccccc2)N(C)C1c1ccccc1 (configuration not stated) , respond with its GI50.
Solution: > 100 µM (inactive)

Exercise: Given CCn1c(-c2ccc(C)cc2)cs/c1=N\C(P(=O)(O)O)P(=O)(O)O , respond with its GI50.
Solution: > 100 µM (inactive)

Exercise: Given CC1=C(O)C(=O)C=C2C1=CC=C1[C@@]2(C)CC[C@@]2(C)C3C[C@@H](C)C(=O)[C@@H](O)[C@]3(C)CC[C@]12C (some centres not stated) , respond with its GI50.
Solution: 8.38 µM (inactive)

Exercise: Given O=[N+]([O-])c1ccc(Sc2c3ccccc3nc3cc(Cl)ccc23)cc1 , respond with its GI50.
Solution: 27.9 µM (inactive)

Exercise: Given CCc1nnc(CC)n1NCCCC(=O)O , respond with its GI50.
Solution: > 100 µM (inactive)

Exercise: Given Cc1ccc([N+](=O)[O-])cc1S(=O)(=O)Nc1ccc(C(=O)/C=C/c2ccccc2)cc1 , respond with its GI50.
Solution: 17.3 µM (inactive)

Exercise: Given Cc1c(C)c2ccc3oc4ccccc4c3c2oc1=O , respond with its GI50.
Solution: 57.8 µM (inactive)

Exercise: Given c1ccc(-c2ccc(-c3cc4ccccc4[nH]3)cc2)cc1 , respond with its GI50.
Solution: > 100 µM (inactive)

Exercise: Given CN(C)C(=S)N=C(Nc1ccccc1)Nc1ccccc1 , respond with its GI50.
Solution: 91 µM (inactive)

Exercise: Given CC(C)N1CCN(c2ccncc2S(=O)(=O)N2CCCCC2)CC1 , respond with its GI50.
Solution: > 100 µM (inactive)

Exercise: Given CCOC(=O)/C=C(/C(=O)OCC)n1ccc(=O)n(CC(=O)OCC)c1=O , respond with its GI50.
Solution: 2.48 µM (inactive)

Exercise: Given O=c1[nH]cc(/C=N\Nc2ccccc2)c(=O)[nH]1 , respond with its GI50.
Solution: > 100 µM (inactive)

Exercise: Given N#CN=C(N(Cc1ccccc1)Cc1ccccc1)N(Cc1ccccc1)Cc1ccccc1 , respond with its GI50.
Solution: 95.7 µM (inactive)

Exercise: Given Cc1ccc(NC(=O)/C(=N\Nc2ccc([N+](=O)[O-])cc2[N+](=O)[O-])C2C(=O)NC(=O)NC2=O)cc1 , respond with its GI50.
Solution: 26.7 µM (inactive)

Exercise: Given CC(=O)NCCCCN(CCCNC(C)=O)C(=O)OCc1ccccc1 , respond with its GI50.
Solution: 19.1 µM (inactive)

Exercise: Given O=C(CSCC(=O)N/N=C/c1ccccc1)N/N=C\c1ccccc1 , respond with its GI50.
Solution: > 100 µM (inactive)

Exercise: Given CC(C)(Br)C(Br)CCC1(C2CO2)CO1 (configuration not stated) , respond with its GI50.
Solution: > 5 µM (inactive)

Exercise: Given CO[C@H](C(=O)O[C@H]1C(=O)N2CCC3CCC1C32C)c1ccccc1 (some centres not stated) , respond with its GI50.
Solution: > 100 µM (inactive)

Exercise: Given NC(=O)c1cn(C2OC(CO)C(O)C2O)c(=O)[nH]c1=O (configuration not stated) , respond with its GI50.
Solution: > 100 µM (inactive)

Exercise: Given CC(=O)c1cccc(NC(=O)C(=O)C(C(=O)c2ccccc2F)C2OC(=O)c3ccccc32)c1 (configuration not stated) , respond with its GI50.
Solution: 25.8 µM (inactive)

Exercise: Given Cc1cc(NS(=O)(=O)c2ccc(Nc3c4ccccc4nc4c(C(=O)NCCO)cccc34)cc2)no1 , respond with its GI50.
Solution: 7.19 µM (inactive)

----------
System: MDA-MB-435
EXPERIMENT NOTES: NCI tumour cell line growth inhibition, 48 h
The source made the active and inactive calls. Cut-off read from the data, not from the text of the source: active = GI50 up to about 1.1 µM and inactive = higher.
Please state which outcome applies, choosing from 1 = active, -1 = inactive

Exercise: Identify the outcome logged in this assay for the molecule shown: c1cc2n(n1)CCN2
Solution: -1

Exercise: Identify the outcome logged in this assay for the molecule shown: O=S(=O)(F)Cc1ccccc1 [PHENYLMETHYLSULFONYLFLUORIDE]
Solution: -1

Exercise: Identify the outcome logged in this assay for the molecule shown: Cc1ccc(Nc2nnc(-c3ccc4c(c3)OCO4)o2)c(C)c1
Solution: -1

Exercise: Identify the outcome logged in this assay for the molecule shown: O=c1cc(-c2ccccc2)[nH]c2cccc(S)c12
Solution: 1

Exercise: Identify the outcome logged in this assay for the molecule shown: Cc1ccc2c(O)cc(-c3ccccc3)nc2n1
Solution: 1

Exercise: Identify the outcome logged in this assay for the molecule shown: CCC(=O)C1(N2CCOCC2)CCN(CCCC(=O)c2ccc(F)cc2)CC1
Solution: -1

----------
Test system: SK-MEL-28
EXPERIMENT NOTES: NCI tumour cell line growth inhibition, 48 h
Activity calls are given as the source filed them. Cut-off read from the data, not from the text of the source: active = GI50 up to about 1.1 µM and inactive = higher.
Please state which outcome applies, choosing from class 1 (active), class 0 (inactive)

Exercise: Identify the outcome logged in this assay for the compound shown: CCCC(=O)O[C@H]1C=C2C[C@@]34SS[C@]5(CC6=C[C@H](OC(C)=O)[C@@H]7O[C@@H]7[C@H]6N5C3=O)C(=O)N4[C@@H]2[C@H]2O[C@H]21
Solution: class 1

Exercise: Identify the outcome logged in this assay for the compound shown: CC1=C2C3OC(=O)C(C)C3C(O)C[C@@]2(C)C(=O)CC1 (stereo partly drawn)
Solution: class 0

Exercise: Identify the outcome logged in this assay for the compound shown: COc1ccc2nc(-c3ccc(O)cc3)cn2c1
Solution: class 0

Exercise: Identify the outcome logged in this assay for the compound shown: CCOC(=O)C(Cc1cn(S(=O)(=O)c2ccc(C)cc2)cn1)P(=O)(OCC)OCC (stereo not drawn)
Solution: class 0

Exercise: Identify the outcome logged in this assay for the compound shown: COC1CC(=O)C2C(=O)N(c3ccccc3)C(=O)C23C(C(=O)c2ccccc2)=C(C)NC13O (stereo not drawn)
Solution: class 0

Exercise: Identify the outcome logged in this assay for the compound shown: CN(C)c1ccc2c3c(c(=O)oc2c1)CCC3
Solution: class 0

Exercise: Identify the outcome logged in this assay for the compound shown: CCOC(=O)/C=C(\C(=O)OCC)n1cc(C)c(=O)n(Cc2cnnn2CCCCOC(C)=O)c1=O
Solution: class 0

Exercise: Identify the outcome logged in this assay for the compound shown: COC(=O)C(=O)C(C(=O)OC)C(=O)C(=O)Nc1cc(Cl)c(Cl)cc1Cl (stereo not drawn)
Solution: class 0

Exercise: Identify the outcome logged in this assay for the compound shown: O=C1/C(=C/c2ccco2)NC(=S)N1CN1CCOCC1
Solution: class 0

Exercise: Identify the outcome logged in this assay for the compound shown: O=C1c2ccccc2C(=O)c2cc(/N=N/c3c(O)ccc4ccccc34)ccc21
Solution: class 0

Exercise: Identify the outcome logged in this assay for the compound shown: CNC(=S)N/N=C1\C(=O)N(CN2CCOCC2)c2ccc([N+](=O)[O-])cc21
Solution: class 0

Exercise: Identify the outcome logged in this assay for the compound shown: COC(=O)[C@@]1(Cc2ccc(OC(C)=O)cc2)Cc2cc3ccccc3n2N1
Solution: class 0

Exercise: Identify the outcome logged in this assay for the compound shown: CNn1c(C)n[nH]c1=O
Solution: class 0

Exercise: Identify the outcome logged in this assay for the compound shown: Cc1ccc(-n2cnc3c(N)nc(N)nc32)cc1
Solution: class 0

Exercise: Identify the outcome logged in this assay for the compound shown: O=c1[nH]c2cc(C(F)(F)F)ccc2nc1C(F)(F)F
Solution: class 0

Exercise: Identify the outcome logged in this assay for the compound shown: Cc1ccc(Nc2n[nH]c(NS(=O)(=O)c3cc(C)c(Cl)cc3S)n2)cc1
Solution: class 0

Exercise: Identify the outcome logged in this assay for the compound shown: COc1c2nc(CCl)n(C)c(=O)c2c(OC)c2c(=O)n(C)c(CCl)nc12
Solution: class 0

Exercise: Identify the outcome logged in this assay for the compound shown: CCc1nc(N)nc(N)c1-c1ccc(Cl)c(Cl)c1
Solution: class 0

Exercise: Identify the outcome logged in this assay for the compound shown: CC(C)CC(NC(=O)C(CCI)Cc1ccccc1)C(=O)Nc1ccccc1 (stereo not drawn)
Solution: class 0

Exercise: Identify the outcome logged in this assay for the compound shown: COc1c(C(=O)CC2c3c(cc4oc(C)cc(=O)c4c3OC)OC(=N)C2c2nc3ccccc3[nH]2)c(O)c(OC)c2occc12 (stereo not drawn)
Solution: class 0

Exercise: Identify the outcome logged in this assay for the compound shown: Cc1ccc(-c2nnc3s/c(=C\c4ccc(N(C)C)cc4)c(=O)n23)cc1
Solution: class 0

Exercise: Identify the outcome logged in this assay for the compound shown: CC(NC(=O)c1ccc(OP(=O)(OCC2=CC(=O)c3ccccc3C2=O)N(C)CCCCCl)cc1)c1ccc(OCC2CCCCC2)c(C(N)=O)c1 (stereo not drawn)
Solution: class 0

Exercise: Identify the outcome logged in this assay for the compound shown: COC1=C(C(c2cc(OC)c(OC)c(OC)c2)c2cc3c(cc2OC)OCO3)C(=O)OC1 (stereo not drawn)
Solution: class 0

Exercise: Identify the outcome logged in this assay for the compound shown: CCOC(=O)c1nc2ccccc2n(CC)c1=O
Solution: class 0

Exercise: Identify the outcome logged in this assay for the compound shown: Cc1ccc(C(=O)Cn2c(C(=O)/C=C/c3cccs3)nc3ccccc32)cc1
Solution: class 0

Exercise: Identify the outcome logged in this assay for the compound shown: O=C(O)c1ccccc1-c1ccccc1C(=O)Nc1ccc2c(c1)Cc1cc(F)ccc1-2
Solution: class 0

Exercise: Identify the outcome logged in this assay for the compound shown: O=C(O)C1CC2C3CCC2C1C3=O (stereo not drawn)
Solution: class 0

Exercise: Identify the outcome logged in this assay for the compound shown: CC(=O)OCCCCn1cnc2c(Cl)nc(Nc3ccccc3)nc21
Solution: class 0
